# testTarget: T1, human ERBB3 His tagged, monomeric (human, UniProt P21860 20-643, biotinylated in the Alphascreen assays (sites not given))
# T1 construct: Used unbiotinylated as Biacore analyte and biotinylated in Alphascreen; treated as one molecule; also called human ERBB3-His (Acrobiosystems); biotinylated monomeric human ERBB3
# method: SPR (Biacore), captured IgG, monomeric ERBB3-His analyte
pKd: −log10 of the molar value.
measuredMetric: pKd

binder	measuredMetric	measuredValue
MH5 IgG1null (antibody, V domains shown, Designer (Maximally Humanized) clone; Human IgG1null and human Ckappa) VH: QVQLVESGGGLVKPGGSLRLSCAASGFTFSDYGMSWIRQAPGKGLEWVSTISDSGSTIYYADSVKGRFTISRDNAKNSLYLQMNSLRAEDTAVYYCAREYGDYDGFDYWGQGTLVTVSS VL: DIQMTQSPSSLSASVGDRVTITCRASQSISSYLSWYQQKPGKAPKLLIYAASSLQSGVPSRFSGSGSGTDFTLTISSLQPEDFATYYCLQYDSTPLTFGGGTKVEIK	pKd	9.15
09H02 IgG1null (antibody, V domains shown, Human IgG1null and human Ckappa; also called 09HO2) VH: QVQLVESGGGLVKPGGSLRLSCAASGFTFSDYSMSWIRQAPGKGLEWVSTISDGGSYTYYPDSVKGRFTISRDNAKNSLYLQMNSLRAEDTAVYYCARELGDYDGFDYWGQGTLVTVSS VL: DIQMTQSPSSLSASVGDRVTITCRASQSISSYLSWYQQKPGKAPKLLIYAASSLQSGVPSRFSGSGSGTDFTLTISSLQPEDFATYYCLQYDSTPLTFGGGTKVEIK	pKd	9.37
15E02 IgG1null (antibody, V domains shown, Human IgG1null and human Ckappa) VH: QVQLVESGGGLVKPGGSLRLSCAASGFTFSDYGMSWIRQAPGKGLEWVSTISDSGTTIYYADNVKGRFTISRDNAKNSLYLQMNSLRAEDTAVYYCAREYGDYDGFDYWGQGTLVTVSS VL: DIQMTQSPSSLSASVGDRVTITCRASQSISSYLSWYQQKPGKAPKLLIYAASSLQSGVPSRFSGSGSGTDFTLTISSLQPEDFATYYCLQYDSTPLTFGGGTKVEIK	pKd	9.21
